Target: human 20S immunoproteasome (i20S) (Homo sapiens)
Assay: 20S proteasome assay, chymotrypsin-like activity (succinyl-Leu-Leu-Val-Tyr-AMC), i20S
Format: biochemical
Conditions: LLVY substrate, 1 h continuous
pIC50: −log10 of the molar value.
property-measured: pIC50

Answered examples (2):
In [3]: df
Out[3]:
                                   compound                              assay_target  property_measured  numeric_value
0  C[C@H](NC(=O)CN1CCOCC1)C(=O)N[C@@H](Cc1ccc(O)c(O)c1)C(=O)N[C@@H](CC1CCCC1)C(=O)[C@@]1(C)CO1 [Compound C-1039]  human 20S immunoproteasome (i20S) (Homo sapiens)              pIC50           6.69
1  COc1ccc(C[C@H](NC(=O)[C@@H](C)NC(=O)[C@@H]2CCOC2)C(=O)N[C@@H](CC2CCCC2)C(=O)[C@@]2(C)CO2)cc1 [Compound C-1036]  human 20S immunoproteasome (i20S) (Homo sapiens)              pIC50           6.32

(I) COc1ccc(C[C@H](NC(=O)[C@@H](C)NC(=O)[C@H]2CCCOC2)C(=O)N[C@@H](CC2CCCC2)C(=O)[C@@]2(C)CO2)cc1 [Compound C-1053]
(II) COc1ccc(C[C@H](NC(=O)[C@H](C)NC(=O)CC2CCOCC2)C(=O)N[C@@H](CC2CCCC2)C(=O)[C@@]2(C)CO2)cc1 [Compound C-1010]
(III) COc1ccc(C[C@H](NC(=O)[C@H](C)NC(=O)CN2CCOCC2)C(=O)N[C@@H](CC2=C(C)CCC2)C(=O)[C@@]2(C)CO2)cc1 [Compound C-1044]
// query rank_up(items): orders items by reported pIC50 in ascending numerical order. Rank the items, then write their labels in that order.
// result III, I, II
